TESTED_SYSTEM: POU1 (OCT1 POU domain);BOB1 (OBF1, OCA-B) (human;human, UniProt P14859;Q16633 260-458;1-256, |)
Sequence (P14859 260-458, chain 1 of 2): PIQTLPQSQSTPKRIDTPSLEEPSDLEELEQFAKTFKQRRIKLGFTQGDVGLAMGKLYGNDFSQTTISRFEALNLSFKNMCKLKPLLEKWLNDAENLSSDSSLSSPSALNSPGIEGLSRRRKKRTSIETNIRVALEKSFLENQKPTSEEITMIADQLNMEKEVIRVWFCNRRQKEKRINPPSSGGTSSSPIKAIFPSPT
Sequence (Q16633 whole entry, chain 2 of 2, the tested form may be a part): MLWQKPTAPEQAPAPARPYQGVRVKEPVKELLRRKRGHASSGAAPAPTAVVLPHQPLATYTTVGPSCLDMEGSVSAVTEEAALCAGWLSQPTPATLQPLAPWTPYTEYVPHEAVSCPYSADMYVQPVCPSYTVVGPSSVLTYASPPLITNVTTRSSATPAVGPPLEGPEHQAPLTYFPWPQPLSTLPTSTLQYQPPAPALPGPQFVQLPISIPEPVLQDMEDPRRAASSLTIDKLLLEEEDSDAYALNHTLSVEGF
METHOD: EMSA-SELEX-seq; with BOB1 (ternary complex band); 20 mM Tris-HCl pH 7.6, 140 mM NaCl, 10% glycerol, 0.5 mM EDTA, 0.05% Triton X-100, 0.1 mg/mL BSA, 0.1 mg/mL poly(dI-dC), 5 mM DTT, room temperature, 20 min; high values mean tight binding
CONDITION_INFO: protein: recombinant;recombinant; copies: 1;1; dsDNA, one strand shown
# Lookup of reported binding signal keyed by entry

Consider the following illustrative entries.
> print(dat)
   sequence.chain     metric.name          experimental.result
1        AAATCAAC  binding signal   0.096 % of ANNNNAAN 8-mers
2        ACGGAAAG  binding signal  0.0406 % of ANNNNAAN 8-mers

q: Entry `AGGTTAAC` has what binding signal?
a: 0.0324 % of ANNNNAAN 8-mers
